biological target: Casein kinase II subunit alpha/beta (Homo sapiens, UniProt P68400); assay: In Vitro Kinase Assay; details: pH 7.5; 30 °C
pIC50: −log10 of the molar value.
value-kind: pIC50

See these solved cases before continuing.
{"compound": "O=C(Nc1ccc(C(=O)O)c(O)c1)c1ccc(N2C(=O)CCS2(=O)=O)cc1", "pIC50": 4.85}
{"compound": "CC1CS(=O)(=O)N(c2ccc(C(=O)Nc3ccc(O)c(C(=O)O)c3)c(Cl)c2)C1=O (configuration not stated)", "pIC50": 5.22}
{"compound": "CC1CS(=O)(=O)N(c2ccc(C(=O)Nc3cccc(C(=O)O)c3)cc2)C1=O (configuration not stated)", "pIC50": 5.51}
{"compound": "CC1CS(=O)(=O)N(c2ccc(C(=O)Nc3cc(C(=O)O)ccc3O)cc2)C1=O (configuration not stated)", "pIC50": 4.80}
{"compound": "CC1CS(=O)(=O)N(c2ccc(C(=O)Nc3ccc(C(=O)O)c(O)c3)c(Cl)c2)C1=O (configuration not stated)", "pIC50": 5.46}
{"compound": "CC1CS(=O)(=O)N(c2ccc(C(=O)Nc3cc(C(=O)O)ccc3O)c(Cl)c2)C1=O (configuration not stated)", "pIC50": 5.43}
{"compound": "O=C(Nc1ccc(O)c(C(=O)O)c1)c1ccc(N2C(=O)CCS2(=O)=O)cc1", "pIC50": 5.10}
{"compound": "O=C(O)c1cccc(NC(=O)c2ccc(N3C(=O)CCS3(=O)=O)cc2)c1", "pIC50": 5.74}

A. O=C(O)c1cc(NC(=O)c2ccc(N3C(=O)CCS3(=O)=O)cc2Cl)ccc1O
B. CC1CS(=O)(=O)N(c2ccc(C(=O)Nc3cccc(C(=O)O)c3)c(Cl)c2)C1=O (configuration not stated)
C. O=C(O)c1cccc(NC(=O)c2ccc(N3C(=O)CCS3(=O)=O)cc2Cl)c1
D. CC1CS(=O)(=O)N(c2ccc(C(=O)Nc3ccc(C(=O)O)c(O)c3)cc2)C1=O (configuration not stated)
Asked: Arrange the 4 compounds by rising pIC50, starting with the smallest. Quick reminder: the answer is the labels in the order asked.
Given back: D, A, B, C

A. CC1(C)CS(=O)(=O)N(c2ccc(C(=O)Nc3cccc(C(=O)O)c3)cc2)C1=O
B. O=C(O)c1ccc(NC(=O)c2ccc(N3C(=O)CCS3(=O)=O)cc2Cl)cc1O
Asked: Which gives the smaller pIC50 number: A or B ? Respond with the label that goes with your answer.
Given back: A

Origin of the recorded values: BindingDB's records for doi:10.3109/14756366.2013.782024
